# MEASURED_ON: Hexose transporter 1 (Plasmodium falciparum) (UniProt O97467)
# METHOD_DESCRIPTION: ST_JUDE_LEISH: Cytotoxicity at 2uM final concentration against transgenic Leishmania Mexicana promastigotes LmPfHT that are glucose transport deficient and complemented with the Plasmodium falciparum hexose transporter. Activity is measured by DNA content using SYBR green in vitro
# Format: functional
OBSERVATION_TYPE: inhibition (%)
Return type: number; implicit unit %.

# example entries with known answers
COMPOUND	UNIT_OF_MEASURE	VAL
COc1ccc2nccc([C@@H](O)CN3CCC(NCc4ccc5c(c4)nnn5C(C)C)CC3)c2c1	%	20.9
Cc1cc2nc(-c3ccc(C(=O)NCCCc4ccccc4)cc3)[nH]c2cc1C	%	9.39
CCOc1c(CNCCCNc2nc3ccccc3[nH]2)cc(I)cc1OC	%	1.56
FC(F)(F)c1ccc2[nH]c(-c3cccc(-c4ccc(CNCC5CCCO5)cc4)c3)nc2c1 (centres undefined)	%	8.39
O=C(NCCCN1CCN(c2cccc(Cl)c2)CC1)c1ccc(-c2nc3cc(Cl)c(Cl)cc3[nH]2)c(F)c1	%	1.4

Specify measured inhibition for COc1c(C2CCN(CCN3CCC(CNC(=O)c4ccc(-c5ccc(C#N)cc5)cc4)CC3)CC2)ccc2c1CCCC2 .
8.83

Specify measured inhibition for Cc1[nH]c(C)c(-c2ccc(OCc3ccccc3)cc2)c(=O)c1Br .
1.22

Specify measured inhibition for Cc1[nH]c(C)c(-c2ccc(OCc3ccc(OC(F)(F)F)cc3)nc2)c(=O)c1Br .
13.8

Specify measured inhibition for O=c1cc(NCCCNCc2cn(S(=O)(=O)c3ccccc3)c3ccccc23)[nH]c2ccccc12 .
-0.55

Specify measured inhibition for CC(C)Cc1ccc(N2CCN(CCCCNC(=O)c3ccc(NC(=O)c4cc(C(F)(F)F)cc(C(F)(F)F)c4)cc3)CC2)cc1 .
1.08

Specify measured inhibition for CCC[C@@H](/C=N/N(C)C(=O)OC(C)(C)C)NC(=O)[C@H](CC(C)C)NC(=O)c1cc2cccc(OC)c2o1 .
3.92

Specify measured inhibition for CN1CCCN(c2ccnc3cc4c(cc23)N(C(=O)c2ccc(Cl)cc2)CC4)CC1 .
12.5

Specify measured inhibition for Cc1cccc(Cl)c1Nc1nnc(-c2cccc(C(=O)NC[C@@H]3CC[C@H]4C[C@@H]3C4(C)C)c2)o1 .
8.97

Specify measured inhibition for Cn1c(=N)n(CC(=O)OCc2ccc(OCc3ccccc3)cc2)c2ccccc21 .
2.29

Specify measured inhibition for O=C(Nc1ccc(Cl)c(Cl)c1)Nc1ccc2nccc(N3CCN(Cc4ccccc4)CC3)c2c1 .
0.94

Specify measured inhibition for O=C(O)C1Cc2c([nH]c3ccccc23)C(c2ccc(Cl)cc2Cl)N1 (centres undefined) .
2.22

Specify measured inhibition for COc1cc2nccc(Nc3cccc(Oc4ccccc4)c3)c2cc1OC .
14.4

Specify measured inhibition for NC(=O)NC(=O)C=Cc1ccco1 .
1.9

Specify measured inhibition for CCN(CC)CCCC(C)Nc1c2cc(OC)ccc2nc2cc(Cl)c([N+](=O)[O-])cc12 (centres undefined) .
0.73

All figures here come from ChEMBL document CHEMBL3433997.
